Attribution: PubChem BioAssay (NCI)

Recorded growth for the following compounds
- Test system: HOP-62 NSCLC
- measurement protocol: NCI-60 one-dose screen, 48 h (100 = growth as untreated, 0 = no growth, -100 = all killed)
- run conditions: 10 µM unless noted
The panel holds about 83,000 compounds, 20% with a hit somewhere; the sample as a whole holds those more often.
parameter: growth (%)

{"columns": ["compound", "result number"],
 "data": [
  ["COC(=O)[C@]12CCC(C)(C)C[C@H]1[C@H]1C(=O)C[C@@H]3[C@@]4(C)c5c([nH]c6ccccc6c5=O)C(C)(C)[C@@H]4CC[C@@]3(C)[C@]1(C)CC2", 85.5],
  ["CC/C=C\\C/C=C\\C[C@H]1C/C=C2/C(=O)C=C[C@@H]2C/C=C\\CCC(=O)O1", -1.49],
  ["O=C1c2cc3c(cc2-c2c1c1ccc(Cl)cc1c(=O)n2CCCN1CCOCC1)OCO3", 26.2],
  ["CCCCCCCCCCCCC[N+](C)(C)Cc1ccccc1", -73.1],
  ["COc1cc(/C=C/C(=O)c2ccc(O)c(CN3CCN(c4cc5c(cc4F)c(=O)c(C(=O)O)cn5C4CC4)CC3)c2)cc(OC)c1OC", 72.3],
  ["O=S(=O)(Nc1ccc(Br)c(Cl)c1)c1ccc(-c2cnc(C3CC3)o2)cc1", 32.6],
  ["O=C1/C(=C/c2ccc(OCCCOc3ccc(Cl)cc3)cc2)N=C2SCCCN12", 99.1],
  ["CCOc1cc2ncc(C#N)c(Nc3ccc(OCc4cccc(F)c4)c(Cl)c3)c2cc1NC(=O)CCCCC1CCSS1 (stereo not drawn)", 94.4]
]}

###

- System: HT29 colon
- measurement protocol: NCI-60 one-dose screen, 48 h
- run conditions: 10 µM unless noted
About 83,000 compounds went through this panel and 20% of them were active in at least one assay; those are over-represented in the sample as a whole. Activity calls are given as the source filed them. How the source made its calls: active means growth percent below 10; inactive means the rest.
Outcomes: yes (1) for active, no (0) for inactive

{"columns": ["compound", "category"],
 "data": [
  ["CC1=C[C@H]2c3c(c(O)c(O)c4oc5c(C)cccc5c(=O)c34)[C@H](c3cc(O)c(O)c4oc5c(C)cccc5c(=O)c34)[C@H]2C(C)(C)C1", "no (0)"],
  ["COc1cc2c(cc1-c1c(C)noc1C)ncc1nc(C3CCCC3)n([C@H](C)COC(F)F)c12", "no (0)"],
  ["COc1cc(-c2nn(-c3ccc(C(=O)O)cc3)cc2C(=O)O)ccc1O", "no (0)"],
  ["N#Cc1c(-c2ccc(Cl)cc2)nc(N/N=C/c2cccc(Br)c2)nc1N1CCOCC1", "no (0)"],
  ["Clc1ccc2c(NCCCCNc3nc(N4CCCCC4)nc4ccccc34)ccnc2c1", "yes (1)"],
  ["O=C1NC(=O)C(c2ccc(Cl)cc2Cl)N1 (configuration not stated)", "no (0)"],
  ["O=C1NC(=S)NC(=O)C1CC(=O)n1c(-c2ccccc2)nc2ccccc21", "no (0)"],
  ["COc1cc2nc(N3CCCC3)nc(Nc3ccccc3)c2cc1OC", "yes (1)"],
  ["COc1cc2c(cc1-c1c(C)noc1C)ncc1nc(C3CCOCC3)n([C@@H](C)COC(F)F)c12", "no (0)"],
  ["Cn1nc(N)c2cc([C@@H]3Nc4ccc5[nH]ncc5c4[C@H]4C5CCC(C5)[C@@H]34)ccc21 (some centres not stated)", "no (0)"],
  ["CC(=O)Oc1ccc(Cl)cc1CN(C(C)=O)C1CCCCC1", "no (0)"],
  ["COc1ccc(-c2cc(=O)c3c(OC)c4ccoc4cc3o2)cc1", "no (0)"],
  ["CCCc1cc(=O)n2c(C(=O)Nc3ccc(F)cc3)c(C(=O)Nc3ccc(F)cc3)sc2n1", "no (0)"],
  ["O=C(/C=C/c1cccc([N+](=O)[O-])c1)c1ccc(O)c(CN2CCN(c3cc4c(cc3F)c(=O)c(C(=O)O)cn4C3CC3)CC2)c1", "yes (1)"],
  ["C=C1C(=O)O[C@H]2[C@H]1CC/C(COC(=O)NCCc1ccc(OC)c(OC)c1)=C\\CC[C@@]1(C)O[C@@H]21", "no (0)"],
  ["CC1=C(O)C(=O)C(C(C#N)(C#N)C(C#N)C#N)C1 (configuration not stated)", "no (0)"],
  ["COc1ccc(/C=C\\c2cc(OC)c(OC)c(OC)c2)cc1OCC(=O)Nc1ccc2nc(C)sc2c1", "no (0)"],
  ["C#CCOc1ccc2ncnc(N3CCN(C(=O)CCl)CC3)c2c1", "no (0)"],
  ["CCOC(=O)C(C)(C#N)C1C=CCCC1 (configuration not stated)", "no (0)"],
  ["Cc1cc(C)nc(SC2=C(Nc3cccc(Cl)c3)C(=O)N(Cc3ccccc3)C2=O)n1", "no (0)"],
  ["COc1cc(-c2nc3ccccc3[nH]2)ccc1OCc1nnc(-c2ccc(CC(C)C)cc2)o1", "no (0)"],
  ["CC(=O)c1cc2c(N)c(C(=O)Nc3ccccc3)sc2nc1C", "no (0)"],
  ["Cc1nc(/N=C(\\N)NC(=O)Nc2cccc([N+](=O)[O-])c2)sc1C", "no (0)"],
  ["C=C1C(=O)O[C@H]2[C@H]1CC/C(C=Nc1ccc(C(F)(F)F)cc1N)=C\\CC[C@@]1(C)O[C@@H]21", "yes (1)"],
  ["N#CN1CC[C@H](C(=O)Nc2cc3cc(C(N)=O)ccc3cn2)C1", "yes (1)"],
  ["O=[N+]([O-])c1ccc2c(c1)Cc1cc(F)ccc1-2", "no (0)"],
  ["C=C(C)[C@@H]1CC[C@]2(C(=O)OC)CC[C@]3(C)[C@H](CC[C@@H]4[C@@]5(C)C/C(=C/c6cccc(I)c6)C(=O)C(C)(C)[C@@H]5CC[C@]43C)[C@@H]12", "no (0)"],
  ["N#Cc1c(-c2ccc(Cl)cc2)nc(NN=Cc2ccco2)nc1N1CCOCC1", "no (0)"],
  ["COc1cc(C=Nc2oc(-c3ccccc3)c(-c3ccccc3)c2C#N)cc(CN2CCCCC2)c1O", "no (0)"],
  ["O=C1c2cccc3cccc(c23)C(=O)N1CCCCN1CCN(CCCCOc2ccc(-c3nc4ccc(N5CCOCC5)cc4[nH]3)cc2)CC1", "no (0)"],
  ["Fc1ccc(CNc2cccc3[nH]c(C(F)(F)F)nc23)cc1", "no (0)"],
  ["CC(=O)OC[C@H]1O[C@H](OC(C)=O)[C@H](NC(=O)/C=C/CCl)[C@@H](OC(C)=O)[C@@H]1OC(C)=O", "no (0)"],
  ["CC(=O)Nc1ccc(S(=O)(=O)Nc2cccc(-c3nc(-c4ccc(NC(=O)c5cccnc5)cc4Cl)no3)c2)cc1", "yes (1)"],
  ["COc1ccc(-c2cc(-c3ccc(Nc4ccnc5cc(Cl)ccc45)cc3)nc(N3CCOCC3)n2)cc1", "yes (1)"],
  ["c1ccc(-c2c(-c3ccccc3)[n+](Cc3ccc4ccccc4c3)c(-c3ccc(-c4nc5ccccc5s4)cc3)n2Cc2ccc3ccccc3c2)cc1", "yes (1)"],
  ["c1ccc(Cn2cc(-c3nc4ccccc4s3)c3cccnc32)cc1", "no (0)"],
  ["CSc1nc(NCc2ccccc2)c(C#N)c(-c2cccc([N+](=O)[O-])c2)n1", "no (0)"]
]}
